# System: Escherichia coli TOP10
# Measurement Description: shrunken log2 fold change of peptide-encoding DNA abundance (4.5 h post-induction vs induction); higher = less antimicrobial activity (less host growth inhibition)
# Experimental Setup: time post-induction: 4.5 h; library: site-saturation at positions 5, 18, 19, 20
Classify as follows. Reported shrunken log2 fold change greater than or equal to -0.4: MET. Reported shrunken log2 fold change below: NOT MET.

Input Sequence: RRIRFRPPRLPRPRPRPHDYPRP
Class Label: MET

Can `RRIRLRPPRLPRPRPRPEHMPRP` be said to have shrunken log2 fold change at or above -0.4?
MET

// inclusive: shrunken log2 fold change at least -0.4? input: `RRIRYRPPRLPRPRPRPWSFPRP`
NOT MET

In plain terms: is recorded shrunken log2 fold change at least -0.4 for `RRIRIRPPRLPRPRPRPITEPRP` ?
NOT MET

Does the sequence `RRIRYRPPRLPRPRPRPYIAPRP` have recorded shrunken log2 fold change that is -0.4 or more?
NOT MET

Given `RRIRFRPPRLPRPRPRPPVSPRP` , state whether its shrunken log2 fold change is at least -0.4.
MET

Record `RRIRTRPPRLPRPRPRPQKEPRP` ; criterion: shrunken log2 fold change no lower than -0.4. Met?
MET

API: above_or_equal(metric=shrunken log2 fold change, cutoff=-0.4) for item `RRIRMRPPRLPRPRPRPSPLPRP`
MET

----------
Quick reference: shrunken log2 fold change of the listed items.
# Tested on: Escherichia coli TOP10;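 also: peptides expressed intracellularly from a pBAD plasmid library in pooled LB shake-flask culture, induced with 0.3% L-arabinose, DNA abundance read by NGS, three biological replicates, DESeq2 with apeglm shrinkage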
# Measurement Description: shrunken log2 fold change of peptide-encoding DNA abundance (4.5 h post-induction vs induction); higher = less antimicrobial activity (less host growth inhibition)
# Experimental Setup: time post-induction: 4.5 h; library: site-saturation at positions 5, 18, 19, 20
Respond using a number only.

Sample records with shrunken log2 fold change:
Input Sequence: RRIRDRPPRLPRPRPRPGARPRP
Subject Of Test: Escherichia coli TOP10
shrunken log2 fold change: 0.863
//
Input Sequence: RRIRKRPPRLPRPRPRPIKFPRP
Subject Of Test: Escherichia coli TOP10
shrunken log2 fold change: -0.131
//
Input Sequence: RRIRARPPRLPRPRPRPNDRPRP
Subject Of Test: Escherichia coli TOP10
shrunken log2 fold change: -0.0519

Respond only with shrunken log2 fold change recorded for `RRIRLRPPRLPRPRPRPARWPRP`
0.284

Return shrunken log2 fold change for the following sequence: `RRIRIRPPRLPRPRPRPMLNPRP`
-0.526

Supply shrunken log2 fold change value. Item: `RRIRRRPPRLPRPRPRPIVGPRP`
0.0287

Give the reported shrunken log2 fold change for this sequence. `RRIRTRPPRLPRPRPRPKLYPRP`
-0.363

Look up and state reported shrunken log2 fold change for `RRIRSRPPRLPRPRPRPASRPRP`
0.189

Fill in reported shrunken log2 fold change for this entry: `RRIRGRPPRLPRPRPRPNAHPRP`
0.754

Look up and state reported shrunken log2 fold change for `RRIRMRPPRLPRPRPRPWSYPRP`
0.206

Provide only the value of recorded shrunken log2 fold change for `RRIRRRPPRLPRPRPRPNVAPRP`
0.304

Kindly indicate its recorded shrunken log2 fold change. Item: `RRIRGRPPRLPRPRPRPVPVPRP`
0.629

Please give measured shrunken log2 fold change of the following entry: `RRIRFRPPRLPRPRPRPIREPRP`
-0.0362

Write down shrunken log2 fold change measured for item `RRIRSRPPRLPRPRPRPFQYPRP`
-0.177

Provide only the value of recorded shrunken log2 fold change for `RRIRMRPPRLPRPRPRPMYPPRP`
-0.00194
